Recorded values, source ChEMBL document CHEMBL3864162.

# testMethodNotes: Volume of distribution at steady state in CD1 mouse at 0.5 mg/kg, iv administered as bolus dose measured up to 7 hrs by UPLC/MS/MS spectrometry analysis
# Type: ADME, organism-based
# assaySetup: in vivo, read-out: Vdss
Can you tell me Vd for the items I'm about to list?
Numeric only. Scale: L/kg

Incoming: Please look at this molecule and report its Vd: C[C@H](NC(=O)COc1nc2cccnc2n1Cc1ccc(OC(F)(F)F)cc1)c1ccc(Cl)cc1
Outgoing: 0.4

Incoming: Please look at this molecule and report its Vd: COc1ccc(Cn2c(CCC(=O)N[C@@H](C)c3ccccc3)nc3cccnc32)cc1
Outgoing: 0.19
